# System tested: ct-AChBP (Capitella teleta acetylcholine-binding protein) (Capitella teleta)
# Sequence (I6L8L2 1-224): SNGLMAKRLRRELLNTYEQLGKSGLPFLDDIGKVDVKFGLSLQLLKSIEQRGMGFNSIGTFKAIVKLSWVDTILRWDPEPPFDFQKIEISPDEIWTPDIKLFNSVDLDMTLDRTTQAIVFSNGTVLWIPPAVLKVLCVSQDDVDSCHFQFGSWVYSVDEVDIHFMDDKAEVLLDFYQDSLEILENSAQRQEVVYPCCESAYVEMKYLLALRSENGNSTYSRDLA
# Experiment notes: STD NMR displacement titration with acetylcholine as reporter ligand
Readout label: pKd
Scale note: pKd = -log10(concentration in M).

QUERY: Which pKd value belongs to CN1CCC[C@H]1c1cccnc1 [Nic, nicotine] ?
RESULT: 6.68
